Values from the supplement of paper PMC3334620

# targetDesc: Ylr278c (UniProt Q05854)
# Sequence (Q05854 whole entry): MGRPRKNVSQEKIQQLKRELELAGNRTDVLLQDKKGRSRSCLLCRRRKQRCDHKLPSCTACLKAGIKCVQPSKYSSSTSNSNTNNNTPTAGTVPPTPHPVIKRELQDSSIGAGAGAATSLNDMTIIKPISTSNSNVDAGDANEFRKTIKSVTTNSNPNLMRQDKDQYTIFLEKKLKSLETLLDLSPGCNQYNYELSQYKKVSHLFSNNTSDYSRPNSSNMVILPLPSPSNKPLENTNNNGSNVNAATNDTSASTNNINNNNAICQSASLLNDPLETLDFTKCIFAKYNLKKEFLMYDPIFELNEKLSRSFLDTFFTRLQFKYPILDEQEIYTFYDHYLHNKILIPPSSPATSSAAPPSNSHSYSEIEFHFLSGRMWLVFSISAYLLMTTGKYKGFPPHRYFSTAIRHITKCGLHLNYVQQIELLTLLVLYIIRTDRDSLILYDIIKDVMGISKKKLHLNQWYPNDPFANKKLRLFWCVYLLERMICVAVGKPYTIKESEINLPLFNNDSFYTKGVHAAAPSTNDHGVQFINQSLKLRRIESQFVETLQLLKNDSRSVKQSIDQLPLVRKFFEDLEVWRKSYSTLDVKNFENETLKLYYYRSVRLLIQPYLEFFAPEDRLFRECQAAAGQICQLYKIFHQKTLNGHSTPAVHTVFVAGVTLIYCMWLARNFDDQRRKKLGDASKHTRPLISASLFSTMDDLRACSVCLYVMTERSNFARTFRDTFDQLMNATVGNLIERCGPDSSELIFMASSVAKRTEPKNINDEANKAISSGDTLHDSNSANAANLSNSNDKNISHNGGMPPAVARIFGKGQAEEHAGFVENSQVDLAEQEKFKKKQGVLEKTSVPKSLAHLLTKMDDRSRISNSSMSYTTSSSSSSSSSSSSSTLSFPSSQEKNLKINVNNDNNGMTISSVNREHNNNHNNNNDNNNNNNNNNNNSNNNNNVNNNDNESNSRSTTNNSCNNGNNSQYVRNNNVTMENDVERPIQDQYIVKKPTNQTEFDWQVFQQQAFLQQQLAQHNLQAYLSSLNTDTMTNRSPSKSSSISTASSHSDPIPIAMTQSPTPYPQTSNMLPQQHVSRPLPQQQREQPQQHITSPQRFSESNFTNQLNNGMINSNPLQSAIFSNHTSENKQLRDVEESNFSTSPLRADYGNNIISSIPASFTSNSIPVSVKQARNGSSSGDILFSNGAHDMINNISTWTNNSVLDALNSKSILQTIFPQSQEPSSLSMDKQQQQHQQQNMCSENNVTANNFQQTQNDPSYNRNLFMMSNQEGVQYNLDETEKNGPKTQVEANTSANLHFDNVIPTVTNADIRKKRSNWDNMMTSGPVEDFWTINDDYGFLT
# assayExplanation: PBM E-score (8-mer binding enrichment) (E-score (-0.5 to 0.5)); higher = stronger / more preferred TF binding
# reportedConditions: protein concentration: 200 nM; construct: GST-DNA-binding domain
The full ranking holds about 33,000 sequences; the median of “E-score (-0.5 to 0.5)” is about -0.054, and the highest 2% start at about 0.39. The list comes from a sample in which the highest values are over-represented; it also holds close analogues and randomly drawn sequences.
Rule: PBM E-score of -0.02 or more gives satisfied; anything lower gives not satisfied.

{"constructSequence": "CCTAGCTA", "className": "not satisfied"}

q: PBM E-score >= -0.02 for CTTCCGGC ?
a: satisfied
